src = PubChem BioAssay (NCI)

# Test system: SF-539 CNS
# test_description: NCI-60 one-dose screen, 48 h
# recorded_conditions: 10 µM
This is part of a sample that, as a whole, favours compounds with a hit. Of some 83,000 tested, about 20% had one in any assay. The source made the active and inactive calls. The calls were made as follows: active = growth percent below 10; inactive = the rest.
Choose one outcome from this list and give only that: 1.0 = active, 0.0 = inactive

Query :: Call for entry `COc1cc(Cn2c(-c3ccccc3)cc3c2-c2oncc2CC3)cc(OC)c1` :
Result :: 1.0

Continuing:
Query :: Call for entry `Fc1cc(-c2ncc(-c3cc(F)c(F)c(F)c3)c(NC3CCCCCC3)n2)cc(F)c1F` :
Result :: 0.0

Query :: Call for entry `C/C(=N\NC(N)=S)C(C)(C)O` :
Result :: 0.0

Query :: Call for entry NC(=O)C12C(=O)NC(=O)C1(C(=O)O)C21CCCC1 (stereo unspecified) :
Result :: 0.0

Query :: Call for entry `COc1ccc(/C=C(\c2cc(OC)c(OC)c(OC)c2)c2nnc(-c3cccs3)o2)cc1` :
Result :: 0.0

Query :: Call for entry `Cc1cc(Cl)ccc1Nc1nc(C(F)(F)F)ccc1C(=O)N/N=C/c1ccccc1Cl` :
Result :: 1.0

* * *

# System: M14 melanoma
# test_description: NCI-60 one-dose screen, 48 h (100 = growth as untreated, 0 = no growth, -100 = all killed)
# recorded_conditions: 10 µM
The panel holds about 83,000 compounds, 20% with a hit somewhere; the sample as a whole holds those more often.
value_kind: growth (%)
A number alone suffices; assume %.

Query :: Sample `CCOC(=O)c1c(O)c2cc(-c3ccccc3)nc(OCC)c2c(=O)n1C` — what was its growth?
Result :: 87.8

Continuing:
Query :: Sample `COc1ccc(Cn2cc3c(c2-c2cc(OC)c(OC)c(OC)c2)CCc2cnoc2-3)cc1[N+](=O)[O-]` — what was its growth?
Result :: 11.4

Query :: Sample `COc1cc(OC)cc(-c2n/c(=C\c3c(O)[nH]c4ccc(OC)cc34)cc3c2=Nc2ccccc2-3)c1` — what was its growth?
Result :: 21.4

* * *

# System: SF-268 CNS
# test_description: NCI-60 one-dose screen, 48 h (100 = growth as untreated, 0 = no growth, -100 = all killed)
# recorded_conditions: 10 µM
Compounds without any hit were thinned out: in the full panel of roughly 83,000, 20% have a hit.
Listing: growth of selected compounds
A number alone suffices; assume %.

Query :: Sample `CCn1nc(-c2ccc(C(=O)OC)cc2)nc2c(=O)n(C)c(=O)nc1-2` — what was its growth?
Result :: 60.7

Query :: Sample `CNC(=O)c1cc(Oc2ccc(NC(=O)Nc3ccc(Cl)c(C(C)(C)C)c3)c(F)c2)ccn1` — what was its growth?
Result :: 59.1

Query :: Sample `CCCCCCCCCCCCCCCCCBr` — what was its growth?
Result :: 109

Query :: Sample `O=C(c1ccc(Cl)cc1)c1no[n+]([O-])c1C(=O)c1ccc(Cl)cc1` — what was its growth?
Result :: 102

Query :: Sample `COc1cccc(C(=O)NNc2nc(N3CCOCC3)nc(N3CCN(C(c4ccccc4)c4ccccc4)CC3)n2)c1` — what was its growth?
Result :: 71.5

Query :: Sample `Cc1ccc([P+](Cc2ccc([N+](=O)[O-])cc2)(c2ccc(C)cc2)c2ccc(C)cc2)cc1` — what was its growth?
Result :: 54.2

Query :: Sample `Cn1c(N)c(N=Cc2ccccc2)c(=O)n(C)c1=O` — what was its growth?
Result :: 110

Query :: Sample CC1=CC2OC34COC3CC(OC(=O)C(F)(F)F)C4(C)C2(C)CC1 (stereo unspecified) — what was its growth?
Result :: 103

Continuing:
Query :: Sample Cc1cc2cc3c(=O)[nH]c(=O)cc-3n(CC(O)C(O)C(O)CO)c2cc1C (stereo unspecified) — what was its growth?
Result :: 108

Query :: Sample `COC(=O)c1ccc(Cn2ccc(=O)[nH]c2=O)cc1` — what was its growth?
Result :: 119

Query :: Sample `O=[N+]([O-])c1ccc(S(=O)(=O)OCCCCOS(=O)(=O)c2ccc([N+](=O)[O-])cc2)cc1` — what was its growth?
Result :: 106

Query :: Sample O=c1[nH]c(=O)n(C2C[C@@H](O)[C@@H](CO)O2)cc1F (stereo partly specified) — what was its growth?
Result :: 24.1

Query :: Sample CC(C)C(C)C(N)C(=O)O (stereo unspecified) — what was its growth?
Result :: 107

Query :: Sample `FC(F)(F)c1ccc(-c2nc(-c3nc4cc(Cl)c(Cl)cc4[nH]3)c3ccccn23)cc1` — what was its growth?
Result :: 44.9

Query :: Sample `Cc1c(C(=O)N[C@H](CO)Cc2ccccc2)[nH]c2ccc(Cl)cc2c1=O` — what was its growth?
Result :: 104

Query :: Sample `COc1cccc(C(=O)NNc2nc(N3CCN(C4CCCCC4)CC3)nc(N3CCN(C(c4ccccc4)c4ccccc4)CC3)n2)c1` — what was its growth?
Result :: 51.1

Query :: Sample COc1ccc(-c2nsc3c2NC(=O)CC3c2ccc(Cl)cc2)cc1 (stereo unspecified) — what was its growth?
Result :: 97.2

Query :: Sample `CCCN(CCC)CCCNC(=O)c1cc2c(-c3ccc(OC)c(OC)c3)nn(C)c2s1` — what was its growth?
Result :: 14.5
